Test system: A2780 cells
Assay: Cytotoxicity (SRB colorimetric assay) on A2780 cells
Type: cell-based
Details: Homo sapiens, 72 h incubation, concentration inhibiting cell proliferation by 50%
reported_property: IC50 (µM)

smiles_input=CC(=O)O[C@@H]1C/C=C\C[C@@H](OC(=O)/C=C/c2cn(C)cn2)C[C@H]2C(C)=CC[C@H](C(C)C)[C@H]2C1 reported_property=IC50 quantity_unit=µM limit_qualifier== observed_result=4
smiles_input=C=C1C/C=C\C[C@@H](OC(=O)/C=C/c2cn(C)cn2)C[C@H]2C(C)=CC[C@H](C(C)C)[C@H]2C1 reported_property=IC50 quantity_unit=µM limit_qualifier== observed_result=4
smiles_input=CO[C@H]1C=CC[C@@H](OC(=O)/C=C/c2cn(C)cn2)C[C@H]2C(C)=CC[C@H](C(C)C)[C@H]2C[C@@H]1OC(=O)C(C)(C)C reported_property=IC50 quantity_unit=µM limit_qualifier=< observed_result=5
smiles_input=CC1=CC[C@H](C(C)C)[C@H]2CC(=O)C/C=C\C[C@@H](OC(=O)/C=C/c3cn(C)cn3)C[C@@H]12 reported_property=IC50 quantity_unit=µM limit_qualifier== observed_result=40
